TESTED ON: DNA dC->dU-editing enzyme APOBEC-3F (Homo sapiens) (UniProt Q8IUX4)
Sequence (Q8IUX4 whole entry, looked up): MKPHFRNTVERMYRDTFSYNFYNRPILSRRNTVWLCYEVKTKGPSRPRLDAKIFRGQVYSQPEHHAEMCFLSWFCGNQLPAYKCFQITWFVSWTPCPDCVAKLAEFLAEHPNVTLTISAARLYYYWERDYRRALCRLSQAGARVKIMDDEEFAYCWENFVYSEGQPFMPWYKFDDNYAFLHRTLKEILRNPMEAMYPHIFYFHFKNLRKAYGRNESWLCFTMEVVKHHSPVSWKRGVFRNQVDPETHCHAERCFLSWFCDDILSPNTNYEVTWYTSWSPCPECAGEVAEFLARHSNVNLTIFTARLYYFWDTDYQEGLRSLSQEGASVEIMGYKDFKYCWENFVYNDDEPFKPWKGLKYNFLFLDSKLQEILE
PROCEDURE TEXT: qHTS for inhibitors of Vif-A3F interactions: Cherry picks; note: nearly all actives have a fitted effect of over 70% in size;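 for max response: % of control where 0% means no effect; active compounds raise eYFP fluorescence by blocking Vif-driven A3F loss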
TEST PARAMETERS: HeLa A3F-eYFP + Vif, eYFP fluorescence, 24 h
The campaign covered roughly 2,100 compounds. About 590 (28%) were called active. Inconclusive results (about 42%) are left out. This is one part of the list.
Would you mind telling me the reported max response of each entry?
Numbers only, in %.

Please review the entries below; each comes with its answer.
[
  {
    "COMPOUND": "N#CC1=C(S)N(c2ccc(F)cc2)C2(CCCCC2)NC1=O",
    "MEASURE": "max response",
    "REPORTED": 2.73
  },
  {
    "COMPOUND": "CCCOc1ccc2cc(C(=O)NCc3ccccc3)c(=O)oc2c1",
    "MEASURE": "max response",
    "REPORTED": -1.07
  },
  {
    "COMPOUND": "N#CC1=C(N)Oc2ccc3ccc(O)cc3c2C1c1ccsc1 (stereo not drawn)",
    "MEASURE": "max response",
    "REPORTED": -15.9
  },
  {
    "COMPOUND": "CN(C)c1ccc2nc3c(=O)[nH]c(=O)nc-3n(CC(O)C(O)C(O)CO)c2c1 (stereo not drawn)",
    "MEASURE": "max response",
    "REPORTED": -2.88
  },
  {
    "COMPOUND": "CN(C)C(=O)c1cccc(-c2cnc3c(NC=O)cc(-c4ccccc4F)cn23)c1",
    "MEASURE": "max response",
    "REPORTED": -4.66
  }
]

Record max response per entry; entries follow.
1. COc1ccccc1N1CCN(C(=O)c2ccc3ncsc3c2)CC1
2. Cc1ccc(NC(=O)CSc2n[nH]c(-c3ccccn3)n2)cc1
3. Cc1ccccc1N1C(=O)c2cccc3c(N(C)CCO)ccc(c23)C1=O

OUTPUT:
1. -21
2. -3.6
3. -29.5

* * *

TESTED ON: DNA dC->dU-editing enzyme APOBEC-3F (Homo sapiens) (UniProt Q8IUX4)
PROCEDURE TEXT: qHTS for inhibitors of Vif-A3F interactions: Cherry picks; note: nearly all actives have a fitted effect of over 70% in size; note: potency is the fitted concentration of half-maximal effect
TEST PARAMETERS: HeLa A3F-eYFP + Vif, eYFP fluorescence, 24 h
Hit rate of the full screen: of about 2,100 compounds, about 590 (28%) were called active. Roughly 42% stayed inconclusive and do not appear here. This is one part of the list.
MEASURE: Potency

Please review the entries below; each comes with its answer.
[
  {
    "COMPOUND": "C=C(NC(=O)C(=C)NC(=O)c1csc(C2=NC3c4csc(n4)C4NC(=O)c5csc(n5)C(C(C)(O)C(C)O)NC(=O)C5CSC(=N5)/C(=C/C)NC(=O)C(C(C)O)NC(=O)c5csc(n5)C3(CC2)NC(=O)C(C)NC(=O)C(=C)NC(=O)C(=C)NC(=O)C(C(C)C)NC2C=Cc3c(C(C)O)cc(nc3C2O)C(=O)OC4C)n1)C(N)=O (stereo not given)",
    "Potency": "12.5 µM (active)"
  },
  {
    "COMPOUND": "COc1cc(/C=C/c2ccnc3ccccc23)ccc1N(C)C",
    "Potency": "9.2 µM (active)"
  },
  {
    "COMPOUND": "O=c1c2ccccc2nc(/C=C/c2ccc([N+](=O)[O-])o2)n1CCCO",
    "Potency": "3.26 µM (active)"
  },
  {
    "COMPOUND": "CN1C(=O)/C(=C\\c2ccc(N(C)C)cc2)OC1=S",
    "Potency": "7.9 µM (active)"
  },
  {
    "COMPOUND": "CCOc1ccc(NC(=O)Cn2c(=O)n(Cc3ccc(C(=O)NCc4ccc(C)cc4)cc3)c(=O)c3ccccc32)cc1",
    "Potency": "11.6 µM (active)"
  }
]

Record Potency per entry; entries follow.
1. N#Cc1c(C(F)(F)F)cc(-c2ccco2)nc1SCc1ccccn1
2. CCN(CC)c1ccc2cc(-c3nc(-c4ccccc4)no3)c(=O)oc2c1
3. c1ccc2c(CCc3c[nH]c4ccccc34)ccnc2c1
4. CCOc1ccc(CCNC(=O)c2ccc(Cn3c(=O)c4cccn4c4cccnc43)cc2)cc1
5. CCOc1ccccc1Nc1nnc(-c2cc3cc(OC)ccc3oc2=O)s1
6. CN1C2CCC1/C(=C/c1cccn1C)C(=O)/C2=C\c1cccn1C
7. CCN1/C(=C/c2cccc[n+]2C)Sc2ccc(OC)cc21

OUTPUT:
1: 10.3 µM (active); 2: 3.66 µM (active); 3: 20.6 µM (active); 4: 16.4 µM (active); 5: 7.31 µM (active); 6: 16.4 µM (active); 7: 18.4 µM (active)

Record Potency per entry; entries follow.
1. Cc1ccc(NC(=O)/C(C#N)=C\c2ccc(-c3ccc(Cl)cc3)o2)c(C)c1
2. C=CCn1cc(/C=C/c2cc[n+](C)cc2)c2ccccc21
3. CC[n+]1ccccc1/C=C1\Sc2ccc(C)cc2N1C
4. COc1cc(-c2noc(C)c2/C=C/c2ccc(OC(C)=O)cc2)cc(OC)c1OC
5. COc1cc(OC)c(/C=C/c2ccnc3ccccc23)c(OC)c1
6. COc1cc2nc(SCC(=O)NCc3ccco3)n(Cc3ccc(Cl)cc3)c(=O)c2cc1OC
7. CCc1ccc2nc(SCC(=O)Nc3ccccc3N3CCOCC3)c(C#N)cc2c1
8. O=C(O)c1ccccc1N/N=C/c1c(Sc2nnnn2-c2ccccc2)nc2ccccn2c1=O

OUTPUT:
1. 7.31 µM (active)
2. 2.23 µM (active)
3. 23.1 µM (active)
4. 0.627 µM (active)
5. 14.6 µM (active)
6. 8.2 µM (active)
7. 1.46 µM (active)
8. 9.94 µM (active)

* * *

TESTED ON: DNA dC->dU-editing enzyme APOBEC-3F (Homo sapiens) (UniProt Q8IUX4)
PROCEDURE TEXT: qHTS for inhibitors of Vif-A3F interactions: Cherry picks; note: nearly all actives have a fitted effect of over 70% in size;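 for max response: % of control where 0% means no effect; active compounds raise eYFP fluorescence by blocking Vif-driven A3F loss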
TEST PARAMETERS: HeLa A3F-eYFP + Vif, eYFP fluorescence, 24 h
In all, about 2,100 compounds went through this assay and about 590 (28%) were called active. Roughly 42% stayed inconclusive and do not appear here. This is one part of the list.
Would you mind telling me the reported max response of each entry?
Answers are plain numbers, in %.

Please review the entries below; each comes with its answer.
[
  {
    "COMPOUND": "COC(=O)C1=COC(C)C2CN3CCc4c([nH]c5cc(OC)c(OC)cc45)C3CC12 (stereo not drawn)",
    "max response, %": -8.29
  },
  {
    "COMPOUND": "Fc1cccc(F)c1/C=N/NC(=S)Nc1cccnc1",
    "max response, %": -0.429
  }
]

--- query ---
INPUT: Give the measured max response of `COc1ccc(-c2csc(-c3ccc(O)cc3)n2)cc1` .
OUTPUT: -24.3

* * *

TESTED ON: DNA dC->dU-editing enzyme APOBEC-3F (Homo sapiens)
PROCEDURE TEXT: qHTS for inhibitors of Vif-A3F interactions: Cherry picks; note: nearly all actives have a fitted effect of over 70% in size; note: potency is the fitted concentration of half-maximal effect
TEST PARAMETERS: HeLa A3F-eYFP + Vif, eYFP fluorescence, 24 h
Screen size: about 2,100 compounds; about 590 (28%) were called active. Not shown: some 42% with an inconclusive outcome. The list shows a part of the results.
Would you mind telling me the reported Potency of each entry?

Please review the entries below; each comes with its answer.
[
  {
    "SMI": "Cc1ccc2nc3sc(C(=O)N4CCCc5ccccc54)c(N)c3cc2c1",
    "MEASURE": "Potency",
    "REPORTED": "14 µM (active)"
  },
  {
    "SMI": "CCN(CC)CCCNc1ccc2ncn3c4ccc(O)cc4c(=O)c1c23",
    "MEASURE": "Potency",
    "REPORTED": "8.2 µM (active)"
  },
  {
    "SMI": "COc1ccc2c(C)cc(SCC#N)nc2c1",
    "MEASURE": "Potency",
    "REPORTED": "20.6 µM (active)"
  },
  {
    "SMI": "Cc1[nH]c2ccccc2c1/C=C/c1cc[n+](C)cc1",
    "MEASURE": "Potency",
    "REPORTED": "1.58 µM (active)"
  },
  {
    "SMI": "Fc1ccc(-c2cnn3c(-c4cccs4)ccnc23)cc1",
    "MEASURE": "Potency",
    "REPORTED": "4.98 µM (active)"
  }
]

INPUT: Give the measured Potency of `Cc1ccc2[nH]c(C)c(/C=C/c3cc[n+](C)cc3)c2c1` .
OUTPUT: 0.994 µM (active)

* * *

TESTED ON: DNA dC->dU-editing enzyme APOBEC-3F (Homo sapiens) (UniProt Q8IUX4)
PROCEDURE TEXT: qHTS for inhibitors of Vif-A3F interactions: Cherry picks; note: nearly all actives have a fitted effect of over 70% in size; note: potency is the fitted concentration of half-maximal effect
TEST PARAMETERS: HeLa A3F-eYFP + Vif (tagged APOBEC3F with the HIV-1 protein that degrades it), eYFP fluorescence, 24 h
About 590 (28%) of roughly 2,100 compounds were called active. Roughly 42% stayed inconclusive and do not appear here. This is one part of the list.
MEASURE: Potency

Please review the entries below; each comes with its answer.
[
  {
    "MOLECULE": "Nc1ccccc1C=C1Cc2ccccc2C1=O",
    "TESTED ON": "DNA dC->dU-editing enzyme APOBEC-3F (Homo sapiens) (UniProt Q8IUX4)",
    "MEASURE": "Potency",
    "REPORTED": "11.6 µM (active)"
  },
  {
    "MOLECULE": "COc1cccc(/C(O)=C/c2nc3ccc(C(=O)NCCc4cccc(C)c4)cc3[nH]c2=O)c1",
    "TESTED ON": "DNA dC->dU-editing enzyme APOBEC-3F (Homo sapiens) (UniProt Q8IUX4)",
    "MEASURE": "Potency",
    "REPORTED": "11.6 µM (active)"
  },
  {
    "MOLECULE": "CCN(CC)c1ccc(/C=C/c2ccncc2)cc1",
    "TESTED ON": "DNA dC->dU-editing enzyme APOBEC-3F (Homo sapiens) (UniProt Q8IUX4)",
    "MEASURE": "Potency",
    "REPORTED": "4.11 µM (active)"
  }
]

Record Potency per entry; entries follow.
1. CCN1CCc2c(sc(NC(=O)c3ccc(S(=O)(=O)N(CC)c4ccccc4)cc3)c2C(N)=O)C1
2. CCN(CC)c1ccc(/C=C/c2ccnc3ccccc23)cc1

OUTPUT:
9.94 µM (active)
6.51 µM (active)

Record Potency per entry; entries follow.
1. COc1ccc2c(Cl)c(C(=O)N/N=C3\CCCC(=O)C3)sc2c1
2. CCCCN1C(=O)/C(=C2/Sc3ccccc3N2C)S/C1=N\c1ncn[nH]1
3. CCN(CC)c1ccc(/C=C/c2cccc[n+]2C)c(OC)c1
4. C=C(C(=O)c1ccccc1)C(C)C(=C)C(=O)c1ccccc1
5. CCOCCCNC(=O)/C(C#N)=C/c1ccc([N+](=O)[O-])o1
6. CS(=O)(=O)N1N=C(c2ccccc2)CC1c1ccc2c(c1)OCO2 (stereo not given)
7. CC(C)N1CCc2c(sc(NC(=O)c3cc4cc([N+](=O)[O-])ccc4s3)c2C(N)=O)C1

OUTPUT:
1. 14 µM (active)
2. 18.4 µM (active)
3. 3.14 µM (active)
4. 12.5 µM (active)
5. 16.4 µM (active)
6. 14 µM (active)
7. 20.6 µM (active)
